pIC50: −log10 of the molar value.
Below, pIC50 values reported for Epidermal growth factor receptor (Homo sapiens, UniProt P00533) across several publications.
property_name: pIC50

Examples with answers:
molecular_string | reading
CN1CCC(c2ccc3c(c2)O[C@@H]2CCN(CCOc4c(cnn4C)-c4ccc5[nH]nc(c5c4)/C=C/3)C2=O)CC1 | 8.08
CN1CCN(Cc2ccc3[nH]/c(=N\C(=O)c4ccnc(Oc5ccc(F)c(O)c5C=O)c4)n(CC(C)(C)O)c3c2)CC1 | 7.63

a: Cc1nn(CCO)c2c1/C=C/c1n[nH]c3cc(F)c(cc13)-c1cnn(C)c1O[C@@H](C)CN(C)C2
b: CN1CCN(Cc2ccc3[nH]/c(=N\C(=O)c4ccnc(C#Cc5cncc(O)c5C=O)c4)n(CC(C)(C)O)c3c2)CC1
Name the one with the greater pIC50 value, either a or b as given. Answer format: the label of the selected item.
a

a: CCN(CC)CCN1CCc2[nH]c(/C=C3\C(=O)Nc4cccc(C5CCNCC5)c43)c(C)c2C1=O
b: CCN(CC)CCNC(=O)c1c(C)[nH]c(/C=C2\C(=O)Nc3cccc(-c4cccc(F)c4)c32)c1C
Name the one with the greater pIC50 value, either a or b as given. Answer format: the label of the selected item.
a
(a: 6.68, b: 4.88)
